Below is a list of entries, each paired with its recorded logP value.
Lab note: write the figure by itself, no unit.

# annotated cases, reported logP shown
>  <cpd-smiles>
NS(=O)(=O)c1ccccc1

>  <logP>
0.33

$$$$
>  <cpd-smiles>
COC(=O)c1ccc(S(=O)(=O)c2ccc(N)cc2)cc1

>  <logP>
2.13

$$$$
>  <cpd-smiles>
NC(=O)c1ccc(S(N)(=O)=O)cc1

>  <logP>
-0.66

$$$$
>  <cpd-smiles>
N#Cc1cccc(S(N)(=O)=O)c1

>  <logP>
0.27

$$$$
>  <cpd-smiles>
NS(=O)(=O)c1cccc([N+](=O)[O-])c1

>  <logP>
0.6

$$$$
>  <cpd-smiles>
CN(C)c1ccc(S(=O)(=O)c2ccc(N)cc2)cc1

>  <logP>
1.93

$$$$
>  <cpd-smiles>
COc1cccc(S(N)(=O)=O)c1

>  <logP>
0.65

$$$$
>  <cpd-smiles>
N#Cc1ccc(S(N)(=O)=O)cc1

>  <logP>
0.4

$$$$
>  <cpd-smiles>
COc1ccc(S(=O)(=O)c2ccc(N)cc2)c(OC)c1

>  <logP>
1.65

$$$$
>  <cpd-smiles>
Cc1ccc(S(N)(=O)=O)cc1

>  <logP>
0.83

$$$$

query: Fill in: logP of "Cc1ccc(S(=O)(=O)c2ccc(N)cc2)c(C)c1" is ___
result: 2.69

query: Fill in: logP of "Nc1ccc(S(=O)(=O)c2ccc(Br)cc2)cc1" is ___
result: 3.15

query: Fill in: logP of "NS(=O)(=O)c1ccc(S(N)(=O)=O)cc1" is ___
result: -0.7
